- method: in vivo
- protocol-conditions: NMRI, mouse, whole body, 40 pmol, total radioactivity
endpoint-name: tissue uptake dose at 0.5 h (%ID)
API: value field is a number in %ID; no unit string.

Query: Which tissue uptake dose at 0.5 h is listed for CC1=NNC(c2ccc(CNC(=O)c3ccc(F)nc3)cc2)=C2CCC[C@H](OC(=O)NCCOCCOCCC(=O)N[C@H](Cc3ccccc3)C(=O)N[C@@H](CCC(N)=O)C(=O)N[C@@H](Cc3c[nH]c4ccccc34)C(=O)N[C@@H](C)C(=O)N[C@H](C(=O)NCC(=O)N[C@@H](Cc3c[nH]cn3)C(=O)N[C@@H](CC(C)C)[C@@H](O)CC(=O)N[C@@H](CC(C)C)C(N)=O)C(C)C)CCC12 (stereo partly shown) ?
Response: 84
